protocol_text: protein stability index of a GFP-peptide fusion (GPS, HEK-293T) (PSI 1-6); higher = more stable;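 also: 24-mer peptide tiles fused after GFP, lentivirally expressed, FACS-sorted into six equal bins by GFP/DsRed ratio, decoded by Illumina sequencing, PSI is the read-weighted mean bin number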
measurement_setup: treatment: MLN4924 1 uM, 8 h; c terminus: a fixed tail appended
endpoint: protein stability index

[
  {
    "sequence_record": "LPLPLSLAPPPLPLPAAAVVHVSF [ZBTB22]",
    "endpoint": "protein stability index",
    "reported_value": 2.15
  },
  {
    "sequence_record": "DAPVPDCLGVHCDFHQGLLSFYNA [FSD1]",
    "endpoint": "protein stability index",
    "reported_value": 2.52
  },
  {
    "sequence_record": "NKKHIHSRSTLECAYRTHLVAGIG [SMG5]",
    "endpoint": "protein stability index",
    "reported_value": 2.39
  },
  {
    "sequence_record": "PESPGGTTTLEGSPSVPCIFCEEH [ZNF277]",
    "endpoint": "protein stability index",
    "reported_value": 4.82
  },
  {
    "sequence_record": "LVTLPVSFAQLKNLKWLDLKDNPL [LRRC59]",
    "endpoint": "protein stability index",
    "reported_value": 2.31
  },
  {
    "sequence_record": "GNNEDVSFSRPADLDLIQSTPFKP [MFF]",
    "endpoint": "protein stability index",
    "reported_value": 5.06
  },
  {
    "sequence_record": "QNMMNHCNLWDSHHPEVPQRILRI [HDAC6]",
    "endpoint": "protein stability index",
    "reported_value": 2.15
  },
  {
    "sequence_record": "KNHEEEMKEFSNQVVGQVNVEMDA [KRT13]",
    "endpoint": "protein stability index",
    "reported_value": 5.44
  },
  {
    "sequence_record": "FQTLQAIVSHFQKLFDVPSLNGVY [CEP70]",
    "endpoint": "protein stability index",
    "reported_value": 2.36
  },
  {
    "sequence_record": "GGSSTSERCLLNNSLWKKNKTICK [NLN]",
    "endpoint": "protein stability index",
    "reported_value": 3.47
  },
  {
    "sequence_record": "EDDALSDKHGCPAYVSPEILNTTG [TRIB1]",
    "endpoint": "protein stability index",
    "reported_value": 4.95
  },
  {
    "sequence_record": "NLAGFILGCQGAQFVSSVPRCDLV [FAM189A2]",
    "endpoint": "protein stability index",
    "reported_value": 2.58
  },
  {
    "sequence_record": "TTTRHKRTANPSKTIDLGAAAHYT [CLINT1]",
    "endpoint": "protein stability index",
    "reported_value": 4.06
  },
  {
    "sequence_record": "AQSGERECHIVVLTDDDVVDWDEE [BTBD10]",
    "endpoint": "protein stability index",
    "reported_value": 5.14
  },
  {
    "sequence_record": "CDKHSKLFEEPEDPSNRSFFSEII [PPP2R2C]",
    "endpoint": "protein stability index",
    "reported_value": 3.57
  },
  {
    "sequence_record": "CLDSPGPLDSKENLENPMRRIHSL [CDC25A]",
    "endpoint": "protein stability index",
    "reported_value": 3.91
  }
]

----------
protocol_text: protein stability index of a GFP-peptide fusion (GPS, HEK-293T) (PSI 1-6); higher = more stable
measurement_setup: treatment: MLN4924 1 uM, 8 h; c terminus: a fixed tail appended
endpoint: protein stability index

[
  {
    "sequence_record": "VVPEKLDDLVPKGKKFLLLSINRY [ALG2]",
    "reported_value": 2.08
  },
  {
    "sequence_record": "AVAFMPEDITKGTQSLPTASASKF [AUP1]",
    "reported_value": 4.3
  },
  {
    "sequence_record": "ISFDRYYKIVKPLWTSFIQSVSYS [P2RY14]",
    "reported_value": 2.08
  },
  {
    "sequence_record": "AEGRVVGRKDITSILRAPAYPLEL [MOSPD3]",
    "reported_value": 3.33
  },
  {
    "sequence_record": "VYSWPKNKKNILLRLLREEEYVAP [TRAF3IP2]",
    "reported_value": 2.5
  },
  {
    "sequence_record": "IPYWVAYYLALLLSLLVMVISPVI [NSDHL]",
    "reported_value": 2.28
  },
  {
    "sequence_record": "ALPSVMRFCCCVAVIYLGYCFCGW [MCOLN1]",
    "reported_value": 2.83
  },
  {
    "sequence_record": "MLHHHCRRNPELQEELQIQAAVAA [ASB7]",
    "reported_value": 3.59
  },
  {
    "sequence_record": "TQRQYKEDESQSEEENDYRNLDAS [CEP70]",
    "reported_value": 5.51
  },
  {
    "sequence_record": "RLQQLRRLRGLLRVLRGRPGAGSR [FBXO33]",
    "reported_value": 2.66
  },
  {
    "sequence_record": "LMQLQDIQYLTENIWASQSVLSAC [IQUB]",
    "reported_value": 2.24
  },
  {
    "sequence_record": "GSDLGGPLPTDPMLGLALGGLVVS [TSPAN10]",
    "reported_value": 2.66
  },
  {
    "sequence_record": "SWSAGLHNRYTENSLRGVILDIHF [FUT8]",
    "reported_value": 2.86
  },
  {
    "sequence_record": "PCPEDASTPRPPEASSSPPEGSQD [TLE6]",
    "reported_value": 5.53
  },
  {
    "sequence_record": "MGEDEDGLSEKNCQNKCRIALVEN [PLD5]",
    "reported_value": 4.82
  },
  {
    "sequence_record": "KAGFTASPFTNLLNGSSQPTTRNY [CDC14A]",
    "reported_value": 3.39
  },
  {
    "sequence_record": "ENSHTNTEVLRNMGFAAKAMKSVH [CHMP4C]",
    "reported_value": 3.77
  },
  {
    "sequence_record": "EAELRRRDTFYKEQLERIERKNAE [CHCHD6]",
    "reported_value": 5.34
  },
  {
    "sequence_record": "ACCEFLESQLDPSNCLGIRDFAET [KLHL12]",
    "reported_value": 3
  },
  {
    "sequence_record": "GEEQTQNPYTELLVLKAHHDIVRF [WDR41]",
    "reported_value": 2.79
  },
  {
    "sequence_record": "QSRGVPAVSESYSAPGACEEPTER [FBXO34]",
    "reported_value": 5.49
  },
  {
    "sequence_record": "VGIYATNSAEACQYVITHAKVNIL [ACSBG2]",
    "reported_value": 2.38
  },
  {
    "sequence_record": "PKKKHLDYLIQATNETNVNIPQMA [SNAP91]",
    "reported_value": 3.43
  },
  {
    "sequence_record": "GALQIEQSEESDQGKYECVATNSA [PTPRD]",
    "reported_value": 5.39
  },
  {
    "sequence_record": "DMENKENGSVGVKNSMENGRPPDP [SAMD13]",
    "reported_value": 5.15
  },
  {
    "sequence_record": "DPSTGCYMYYFQYLSKTYCVDATR [KMT5A]",
    "reported_value": 2.18
  },
  {
    "sequence_record": "VFLNLHTLKFYCLPDNYEIIDSSL [USP39]",
    "reported_value": 2.58
  },
  {
    "sequence_record": "FSPAKPKPSKELKPLLGSAVLGLL [MYORG]",
    "reported_value": 2.21
  },
  {
    "sequence_record": "AFHGLSLGLSLTNGLALGPDLNIL [PSD2]",
    "reported_value": 2.54
  },
  {
    "sequence_record": "GHSPARAGKQRMKEKEQENERKVA [DDIT3]",
    "reported_value": 5.43
  },
  {
    "sequence_record": "IGLTKAGMEGDWSWVDDTPFNKVQ [CD207]",
    "reported_value": 3.04
  },
  {
    "sequence_record": "KALQMLLSQPVTYQAFRECTLETT [BCL2L13]",
    "reported_value": 2.79
  },
  {
    "sequence_record": "GHQPGTGPGDGPPEIAQNFSAPDP [SMTNL2]",
    "reported_value": 5.46
  },
  {
    "sequence_record": "WDSGCLAPPSTRTSHSLPESSVPS [PLEKHN1]",
    "reported_value": 4.64
  },
  {
    "sequence_record": "LSEIFPGGIRGRAMALTSSMNWGI [SLC2A12]",
    "reported_value": 2.2
  },
  {
    "sequence_record": "RSRLRPRDDLDRLGVFLDYEAGVL [TRIM14]",
    "reported_value": 2.59
  },
  {
    "sequence_record": "ATLKGPDSHYGTKGLKKVVHETPA [BTBD1]",
    "reported_value": 4.54
  },
  {
    "sequence_record": "STSSSFPSSFPSSSSSSSSSCYPL [MAGEA10]",
    "reported_value": 3.82
  },
  {
    "sequence_record": "FLQQSLERVYSLQHLDPQGAQELL [INTS4]",
    "reported_value": 2.76
  },
  {
    "sequence_record": "SALTLACYKGHLEMVRFLLEAGAD [ANKRD17]",
    "reported_value": 2.69
  }
]
